- Method summary: forskolin-driven CRE-LacZ activity in PC12 – cell-based, CRE-LacZ reporter, forskolin-stimulated, primary screen (AID 1146);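 further: PC12 cells with 6xCRE LacZ reporter stimulated by forskolin 10 µM; beta-galactosidase reporter signal reflecting CREB driven transcription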
- Condition notes: luminescence, 4.5 h, higher = more signal, called active from +8 up or from −8 down
Calls of active or inactive are those of the source.
z-score reference

Below, each entry is followed by its recorded z-score result.
[[record]]
compound = "COC(=O)[C@@]1(Cc2ccccc2)[C@H]2c3cc(C(=O)N(C)C)n(CCO)c3C[C@H]2CN1C(=O)c1ccccc1"
parameter_measured = "z-score"
test_value = "-0.609 (inactive)"

[[record]]
compound = "O=C(NCc1ccccc1)[C@@H]1c2ccccc2C(=O)N(Cc2cc(C(F)(F)F)cc(C(F)(F)F)c2)[C@H]1c1ccc(CO)cc1"
parameter_measured = "z-score"
test_value = "0.119 (inactive)"


Input: Please look up its z-score: [N-]=[N+]=Nc1ccccc1C[C@@]1(C(=O)NCc2ccccc2)N=C(c2ccc(OCCCO)cc2)O[C@@H]1c1ccccc1N=[N+]=[N-]
Output: -2.3 (inactive)

Input: Same question for CCCCC(=C=CC[C@H](O)c1ccc(CO)o1)CCO please.
Output: 1.56 (inactive)

Input: Same question for O=C(NCCN1CCOCC1)[C@@H]1c2ccccc2C(=O)N(Cc2ccc(OC(F)(F)F)cc2)[C@H]1c1ccc(CO)cc1 please.
Output: 0.338 (inactive)

Input: Same question for O=C1NC(=O)C2C1C=CC(C(O)c1ccc([N+](=O)[O-])cc1)N2Nc1ccccn1 (stereo not given) please.
Output: -0.728 (inactive)

Input: Same question for C=CC[C@@]12N=C(c3ccc(OCCCO)cc3)O[C@@H]1c1ccccc1N(CCC)C2=O please.
Output: -0.707 (inactive)

Input: Same question for CC(C)(C)OC(=O)CC[C@@]1(C(=O)NCCN2CCOCC2)N=C(c2ccc(OCCCO)cc2)O[C@@H]1c1ccccc1CN=[N+]=[N-] please.
Output: 0.54 (inactive)

Input: Same question for C=CCC(OC(C)=O)[C@@H]1[C@@H](N(Cc2cc3ccccc3o2)C(=O)Cc2ccc(OC)cc2)c2cc(OCCCO)ccc2N1C(=O)c1ccc2ccccc2n1 (stereo not given in full) please.
Output: -0.24 (inactive)
